# SETUP CONDITIONS: in acetone, 288.13 K
RECORDED METRIC: solubility (mole fraction)
Number only, please.

What does the record list as solubility (mole fraction) for `Cn1cnc2c1c(=O)[nH]c(=O)n2C` ?
1.47e-05

====

# SETUP CONDITIONS: in water, 328.15 K
RECORDED METRIC: solubility (mole fraction)
// no unit string in output, number only

Data request, read-out solubility (mole fraction), for `Cn1cnc2c1c(=O)[nH]c(=O)n2C`
0.000145

====

# SETUP CONDITIONS: in water, 308.16 K
RECORDED METRIC: solubility (mole fraction)
Form field (numeric): enter value without unit.

Any idea what solubility (mole fraction) was measured for `Cn1c(=O)c2[nH]cnc2n(C)c1=O` ?
0.000991
